src = patent US6509367B1

# SYSTEM UNDER TEST: CB1 receptor (Rattus norvegicus)
# Sequence (P20272 whole entry): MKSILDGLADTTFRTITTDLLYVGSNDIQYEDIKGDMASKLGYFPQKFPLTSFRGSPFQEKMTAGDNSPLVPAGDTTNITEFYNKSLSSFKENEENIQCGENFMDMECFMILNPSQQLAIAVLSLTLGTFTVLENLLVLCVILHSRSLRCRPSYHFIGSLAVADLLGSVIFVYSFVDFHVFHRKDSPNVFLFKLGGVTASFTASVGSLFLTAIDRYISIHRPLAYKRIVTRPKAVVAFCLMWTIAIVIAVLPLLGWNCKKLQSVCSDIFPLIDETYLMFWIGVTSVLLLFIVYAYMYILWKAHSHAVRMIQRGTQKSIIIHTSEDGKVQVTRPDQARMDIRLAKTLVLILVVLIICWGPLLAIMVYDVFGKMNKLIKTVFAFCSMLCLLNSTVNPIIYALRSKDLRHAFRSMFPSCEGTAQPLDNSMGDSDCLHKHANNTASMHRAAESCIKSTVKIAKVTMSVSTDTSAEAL
# ASSAY METHOD TEXT: biochemical
# Type: binding
# MEASUREMENT PARAMETERS: Ki (nM), 1 nM [3H] CP 55,940, rat whole brain P2 membranes, 30° C. for 1 hr
// classify: if (Ki < 80 nM) t else f

Solved cases (3 shown):
{"COMPOUND": "CCCCCCCNC(=O)c1nn(-c2ccc(Cl)cc2Cl)c(-c2ccc(Cl)cc2)c1C [Compound O-1270]", "ANSWER LABEL": "t"}
{"COMPOUND": "CCCCCc1ccc(-c2c(C)c(C(=O)NN3CCCCC3)nn2-c2ccc(Cl)cc2Cl)cc1 [Compound O-1302]", "ANSWER LABEL": "t"}
{"COMPOUND": "CCC(C)c1ccc(-n2nc(C(=O)NN3CCCCC3)c(C)c2-c2ccc(Cl)cc2)cc1 (stereo not shown) [Compound O-1253]", "ANSWER LABEL": "t"}

Q) Find out if reported Ki for CCCNC(=O)c1nn(-c2ccc(Cl)cc2Cl)c(-c2ccc(Cl)cc2)c1C [Compound O-1399] is less than 80 nM
A) f
